target: CYP3A4 (Homo sapiens, UniProt P08684); experiment: IC50 assessment using recombinant human CYPs (probe testosterone); details: recombinant CYP 0.025 μM, testosterone 0.05 mg mL^−1, 37 °C, 30 min, n = 3; read-out: IC50 against CYP3A4
Sequence (P08684 whole entry): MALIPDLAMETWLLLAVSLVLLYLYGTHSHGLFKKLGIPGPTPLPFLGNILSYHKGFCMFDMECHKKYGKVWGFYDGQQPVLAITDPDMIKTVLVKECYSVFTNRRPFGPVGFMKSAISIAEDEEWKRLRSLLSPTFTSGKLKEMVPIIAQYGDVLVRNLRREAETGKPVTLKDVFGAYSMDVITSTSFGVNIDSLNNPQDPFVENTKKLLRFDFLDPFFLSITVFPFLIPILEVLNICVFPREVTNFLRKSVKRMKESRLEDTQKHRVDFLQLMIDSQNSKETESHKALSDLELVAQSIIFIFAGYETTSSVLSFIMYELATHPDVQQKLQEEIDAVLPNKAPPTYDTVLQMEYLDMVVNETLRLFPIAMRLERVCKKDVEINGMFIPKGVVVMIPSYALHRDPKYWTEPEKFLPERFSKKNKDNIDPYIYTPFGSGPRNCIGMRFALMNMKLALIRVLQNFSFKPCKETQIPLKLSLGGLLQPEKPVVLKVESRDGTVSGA
ENDPOINT: pIC50
// pIC50 here means minus log10 of the molar concentration (mol/L)

Ask | Need pIC50 of CN(C)CCN1CC2c3ccccc3CCN2c2nc3ccccc3nc21 (stereo not shown) [TNBG-5602] , thanks.
Reply | 4.73

* * *

experiment: Pharmacokinetics in rats after a single intravenous administration; conditions: rat, plasma, iv, 4.8 mg/kg, CL (clearance), rats, i.v. 4.8 mg kg^−1, two-compartment model, mean, n = 5
ENDPOINT: clearance (mL/min)
Give the quantity in mL/min, number only.

Ask | Need clearance of CN(C)CCN1CC2c3ccccc3CCN2c2nc3ccccc3nc21 (stereo not shown) [TNBG-5602] , thanks.
Reply | 22
